Assay: Venous thrombosis: venous stasis under hypercoagulation (Wessler), thrombus removed and weighed
Format: in vivo, male Wistar rats
Settings: Rattus norvegicus, po; 12.5 mg/kg administered orally, suspension in PEG 400; thrombosis induced 4 hours after treatment
Give 1.0 when the value for inhibition in vivo at 12.5 mg/kg is at least 90%. Give 0.0 when it is less.

{"columns": ["Compound", "Cat"],
 "data": [
  ["Nc1ccc(S[C@@H]2SC[C@@H](O)[C@H](O)[C@H]2O)cc1 [Example 18]", 1.0],
  ["N#Cc1ccccc1O[C@@H]1SC[C@@H](O)[C@H](O)[C@H]1O [Example 26, 2-cyanophenyl 5-thio-β-D-xylopyranoside]", 1.0],
  ["O=[N+]([O-])c1ccccc1S[C@@H]1SC[C@@H](O)[C@H](O)[C@H]1O [Example 7]", 1.0],
  ["O[C@@H]1[C@@H](O)[C@H](Sc2ccc(C(F)(F)F)cc2)SC[C@H]1O [Example 4]", 0.0],
  ["COc1cc(S[C@@H]2SC[C@@H](OC(C)=O)[C@H](OC(C)=O)[C@H]2OC(C)=O)cc(OC)c1OC [Example 10a]", 0.0],
  ["O=[N+]([O-])c1cccc(S[C@@H]2SC[C@@H](O)[C@H](O)[C@H]2O)c1 [Example 12]", 0.0],
  ["N#Cc1ccc(-c2ccc(S[C@@H]3SC[C@@H](O)[C@H](O)[C@H]3O)cc2)cc1 [Example 14]", 0.0],
  ["N#Cc1ccc(S[C@@H]2SC[C@@H](O)[C@H](O)[C@H]2O)c(C#N)c1 [Example 16]", 1.0],
  ["N#Cc1ccc2cc(S[C@@H]3SC[C@@H](O)[C@H](O)[C@H]3O)ccc2c1 [Example 8]", 1.0],
  ["N#Cc1cccc(O[C@@H]2SC[C@@H](O)[C@H](O)[C@H]2O)c1 [Example 27, 3-cyanophenyl 5-thio-β-D-xylopyranoside]", 1.0],
  ["O=[N+]([O-])c1ccccc1O[C@@H]1SC[C@@H](O)[C@H](O)[C@H]1O [Example 28, 2-nitrophenyl 5-thio-β-D-xylopyranoside]", 1.0],
  ["O[C@@H]1[C@@H](O)[C@H](Sc2ccc3ccccc3c2)SC[C@H]1O [Example 3]", 0.0],
  ["O[C@@H]1[C@@H](O)[C@H](Sc2ccccc2C(F)(F)F)SC[C@H]1O [Example 13]", 0.0],
  ["O[C@@H]1[C@@H](O)[C@H](Sc2ccccc2)SC[C@H]1O [Example 9, phenyl 1,5-dithio-β-D-xylopyranoside]", 0.0],
  ["CC(=O)c1ccc(S[C@@H]2SC[C@@H](O)[C@H](O)[C@H]2O)cc1 [Example 11]", 1.0],
  ["O=[N+]([O-])c1ccc(O[C@@H]2SC[C@@H](O)[C@H](O)[C@H]2O)cc1 [Example 23, 4-nitrophenyl 5-thio-β-D-xylopyranoside]", 1.0],
  ["N#Cc1cccc(S[C@@H]2SC[C@@H](O)[C@H](O)[C@H]2O)c1 [Example 5]", 0.0],
  ["CC(=O)Nc1ccc(S[C@@H]2SC[C@@H](O)[C@H](O)[C@H]2O)cc1 [Example 19]", 1.0],
  ["O=[N+]([O-])c1ccc(S[C@@H]2SC[C@@H](O)[C@H](O)[C@H]2O)cc1 [Example 2]", 0.0],
  ["N#Cc1cc(C#N)c(S[C@@H]2SC[C@@H](O)[C@H](O)[C@H]2O)c(C#N)c1 [Example 17]", 0.0],
  ["COc1cc(S[C@@H]2SC[C@@H](O)[C@H](O)[C@H]2O)cc(OC)c1OC [Example 10]", 0.0],
  ["CC(=O)O[C@@H]1[C@@H](OC(C)=O)[C@H](Sc2ccc(C#N)cc2C#N)SC[C@H]1OC(C)=O [Example 16a]", 0.0],
  ["CC(=O)c1ccc(O[C@@H]2SC[C@@H](O)[C@H](O)[C@H]2O)cc1 [Example 24, 4-acetylphenyl 5-thio-β-D-xylopyranoside]", 1.0]
]}
